System: HOP-92 NSCLC
Experiment: NCI tumour cell line growth inhibition, 48 h
Where a SMILES comes first, the peptide text is derived from it. [ ]: non-standard residue; d: D form. The star is where a group is joined. mTyr = N[CH](Cc1cccc(O)c1)C(=O)O; Cbz = O=C(OCc1ccccc1)*; OBn = c1ccc(CO*)cc1

COMPOUND: CC1(C)N=C(N)N=C(N)N1c1ccc(CCCCc2ccc(S(=O)(=O)F)cc2)c(Cl)c1
STUDY SYSTEM: HOP-92 NSCLC
RESULT OPERATOR: =
TGI / µM: 26.1

COMPOUND: COc1ccc(C(=O)N2c3ccccc3Sc3ccccc32)c(OC)c1
STUDY SYSTEM: HOP-92 NSCLC
RESULT OPERATOR: =
TGI / µM: 97.2

COMPOUND: COc1cc2c(cc1OC)C1(c3ccc(Cl)cc3)ON=C(c3ccccc3)N1CS2 (stereo not given)
STUDY SYSTEM: HOP-92 NSCLC
RESULT OPERATOR: >
TGI / µM: 100

COMPOUND: COC(=O)C(Cc1cccc(O)c1)NC(=O)C(CC(=O)OCc1ccccc1)NC(=O)OCc1ccccc1 (stereo not given) (Cbz-Asp(OBn)-[mTyr]-OMe; configuration not given here)
STUDY SYSTEM: HOP-92 NSCLC
RESULT OPERATOR: >
TGI / µM: 100

COMPOUND: COc1cc(/C=C(/C#N)C(N)=O)ccc1O
STUDY SYSTEM: HOP-92 NSCLC
RESULT OPERATOR: >
TGI / µM: 100

COMPOUND: COc1ccc(C(Cl)=C(c2ccc(OCCN(C)C)cc2)c2ccc(OCCN(C)C)cc2)cc1
STUDY SYSTEM: HOP-92 NSCLC
RESULT OPERATOR: =
TGI / µM: 6.1

COMPOUND: N#Cc1c(N)[nH]c2ccc(Sc3ccccc3)cc12
STUDY SYSTEM: HOP-92 NSCLC
RESULT OPERATOR: =
TGI / µM: 19.8

COMPOUND: COc1cc2nc(NCCCCCNC(=O)c3ccco3)nc(N)c2cc1OC
STUDY SYSTEM: HOP-92 NSCLC
RESULT OPERATOR: =
TGI / µM: 42

COMPOUND: O=C(O)COc1c(Cl)cc(Cl)c2cccnc12
STUDY SYSTEM: HOP-92 NSCLC
RESULT OPERATOR: >
TGI / µM: 100

COMPOUND: Nc1ccc(-c2nc3ccccc3[nH]2)c2ccccc12
STUDY SYSTEM: HOP-92 NSCLC
RESULT OPERATOR: =
TGI / µM: 9.61

----------
System: 786-0 renal
Experiment: NCI tumour cell line growth inhibition, 48 h
MEASUREMENT KIND: TGI

COMPOUND: CN(C)c1ccc(/C=C2\C=Cc3ccccc32)cc1
MEASUREMENT KIND: TGI
RESULT: > 100 µM

COMPOUND: CC(C)C1=CC23CCC4C(C)(C(=O)O)CCCC4(C)C2CC1C1C(=O)N(c2ccc(C(=O)O)cc2)C(=O)C13 (centres undefined)
MEASUREMENT KIND: TGI
RESULT: > 100 µM

COMPOUND: COc1nc(N)c(N=CC(OC(C)=O)C(OC(C)=O)C(COC(C)=O)OC(C)=O)c(=O)n1C (centres undefined)
MEASUREMENT KIND: TGI
RESULT: > 100 µM

COMPOUND: COc1ccc2cc(-c3c(-c4ccncc4)nc(-c4ccc(S(C)=O)cc4)n3C)ccc2c1 (centres undefined)
MEASUREMENT KIND: TGI
RESULT: > 25 µM

COMPOUND: COc1cc([C@@H]2c3cc(O)c(OC)cc3C=C(C(N)=O)[C@H]2C(N)=O)ccc1O
MEASUREMENT KIND: TGI
RESULT: > 100 µM

COMPOUND: CC(C)c1c2[nH]c3ccccc3c2c(C(C)C)c2[nH]c3ccccc3c12
MEASUREMENT KIND: TGI
RESULT: > 100 µM

COMPOUND: CC1CN1c1c(C(=O)/C=C/c2ccccc2)c(-c2ccccc2)nn(C)c1=O (centres undefined)
MEASUREMENT KIND: TGI
RESULT: 30.6 µM

COMPOUND: COc1ccc(-c2cc(=O)c3c(OC)c(OC)c(OC)c(OC)c3o2)cc1
MEASUREMENT KIND: TGI
RESULT: > 100 µM

COMPOUND: CCOC1=C2N=C(Cc3ccccc3F)N=C2C(=O)c2ccccc21
MEASUREMENT KIND: TGI
RESULT: > 100 µM

COMPOUND: c1ccc2c3c([nH]c2c1)C1CCCN1CC3 (centres undefined)
MEASUREMENT KIND: TGI
RESULT: > 10 µM

COMPOUND: CC(C)[C@@H]1ON1C(C)c1ccccc1 (some centres undefined)
MEASUREMENT KIND: TGI
RESULT: > 100 µM

COMPOUND: Cn1c2ccccc2n2c(=O)c3c(c(C#N)c12)CCCC3
MEASUREMENT KIND: TGI
RESULT: > 100 µM

COMPOUND: CCNC1=C(NC(=O)CC)C(=O)c2ccccc2C1=O
MEASUREMENT KIND: TGI
RESULT: > 100 µM

COMPOUND: CCC(c1c[nH]c2ccc(Br)cc12)c1c[nH]c2ccc(Br)cc12
MEASUREMENT KIND: TGI
RESULT: 11.2 µM

COMPOUND: Nc1ccc(CCN2CCN(CCCc3ccccc3)CC2)cc1
MEASUREMENT KIND: TGI
RESULT: > 100 µM

COMPOUND: O=C(O)COc1c(Cl)cc(Cl)c2cccnc12
MEASUREMENT KIND: TGI
RESULT: > 100 µM

COMPOUND: O=C(O)CNC(=O)c1c2ccccc2nc2ccccc12
MEASUREMENT KIND: TGI
RESULT: > 100 µM

COMPOUND: COC(CN1C=C(Sc2ccccc2)CC1)OC
MEASUREMENT KIND: TGI
RESULT: > 100 µM

COMPOUND: C/C=C(\C)c1cc(O)c(C)c2c1Oc1cc(O)c(Cl)c(C)c1C(=O)O2
MEASUREMENT KIND: TGI
RESULT: 49.2 µM

COMPOUND: COC(=O)C1=C(C)N2[C@H](C(=O)O)CO[C@@]2(C)[C@H](C(=O)OC)[C@H]1c1cccc([N+](=O)[O-])c1
MEASUREMENT KIND: TGI
RESULT: > 100 µM

COMPOUND: CC1=CC(=O)C(O)C2(C)C1CC(O)C13COC4(C)C(OC(=O)C41)C(O)C23 (centres undefined)
MEASUREMENT KIND: TGI
RESULT: 27.4 µM

COMPOUND: COc1ccc(C(=O)c2[nH]c(Nc3ccc(Cl)cc3)c(C(=S)Nc3ccccc3)c2N)cc1
MEASUREMENT KIND: TGI
RESULT: > 100 µM

COMPOUND: Fc1cccc(C2SCc3nc4ccccc4n32)c1F (centres undefined)
MEASUREMENT KIND: TGI
RESULT: > 100 µM

COMPOUND: COc1ccc(/C=C2\CN(C)C/C(=C\c3ccc(OC)c(OC)c3OC)C2=O)c(OC)c1OC
MEASUREMENT KIND: TGI
RESULT: 0.806 µM

----------
The following compounds are listed with their measured TGI values.
System: CAKI-1 renal
Assay: NCI tumour cell line growth inhibition, 48 h
MEASUREMENT KIND: TGI (µM)

COMPOUND: BrCc1ccc(CBr)cc1
STUDY SYSTEM: CAKI-1 renal
MEASUREMENT KIND: TGI
RESULT OPERATOR: =
MEASURED NUMBER: 6.92
//
COMPOUND: CCN(c1cccc(NC(=S)Nc2ccccc2N(CC)c2cc(-c3ccccc3)no2)c1)c1cc(-c2ccccc2)no1
STUDY SYSTEM: CAKI-1 renal
MEASUREMENT KIND: TGI
RESULT OPERATOR: >
MEASURED NUMBER: 100
//
COMPOUND: COc1ccc(-c2cc(=O)c3c(OC)c(OC)c(OC)c(OC)c3o2)cc1
STUDY SYSTEM: CAKI-1 renal
MEASUREMENT KIND: TGI
RESULT OPERATOR: >
MEASURED NUMBER: 100
//
COMPOUND: c1ccc(P(=Nc2ccccc2N=P(c2ccccc2)(c2ccccc2)c2ccccc2)(c2ccccc2)c2ccccc2)cc1
STUDY SYSTEM: CAKI-1 renal
MEASUREMENT KIND: TGI
RESULT OPERATOR: =
MEASURED NUMBER: 3.72
//
COMPOUND: CC1(O)OC(=O)C2=C1CCC1C2CCC2(C)C(O)CCC12 (stereo not given)
STUDY SYSTEM: CAKI-1 renal
MEASUREMENT KIND: TGI
RESULT OPERATOR: >
MEASURED NUMBER: 100
//
COMPOUND: CC1CN1c1c(C(=O)/C=C/c2ccccc2)c(-c2ccccc2)nn(C)c1=O (stereo not given)
STUDY SYSTEM: CAKI-1 renal
MEASUREMENT KIND: TGI
RESULT OPERATOR: =
MEASURED NUMBER: 81.7
//
COMPOUND: O=[N+]([O-])c1cc(S(=O)(=O)Oc2ccccc2)ccc1Cl
STUDY SYSTEM: CAKI-1 renal
MEASUREMENT KIND: TGI
RESULT OPERATOR: =
MEASURED NUMBER: 2.89
//
COMPOUND: Cc1c(C2=C(c3cn(C)c4ccccc34)C(=O)NC2=O)c2ccccc2n1C
STUDY SYSTEM: CAKI-1 renal
MEASUREMENT KIND: TGI
RESULT OPERATOR: >
MEASURED NUMBER: 25
//
COMPOUND: CC(C)(C)c1cc(C2COC(c3cc(C(C)(C)C)c(O)c(C(C)(C)C)c3)CO2)cc(C(C)(C)C)c1O (stereo not given)
STUDY SYSTEM: CAKI-1 renal
MEASUREMENT KIND: TGI
RESULT OPERATOR: >
MEASURED NUMBER: 100
//
COMPOUND: C#CCOCC12C=CC(O1)C1C(=O)OCC12 (stereo not given)
STUDY SYSTEM: CAKI-1 renal
MEASUREMENT KIND: TGI
RESULT OPERATOR: >
MEASURED NUMBER: 100
